target: human CD33 on primary human dendritic cells (human, UniProt P20138 18-364); experiment: cell-based or functional assay
Sequence (P20138 18-364): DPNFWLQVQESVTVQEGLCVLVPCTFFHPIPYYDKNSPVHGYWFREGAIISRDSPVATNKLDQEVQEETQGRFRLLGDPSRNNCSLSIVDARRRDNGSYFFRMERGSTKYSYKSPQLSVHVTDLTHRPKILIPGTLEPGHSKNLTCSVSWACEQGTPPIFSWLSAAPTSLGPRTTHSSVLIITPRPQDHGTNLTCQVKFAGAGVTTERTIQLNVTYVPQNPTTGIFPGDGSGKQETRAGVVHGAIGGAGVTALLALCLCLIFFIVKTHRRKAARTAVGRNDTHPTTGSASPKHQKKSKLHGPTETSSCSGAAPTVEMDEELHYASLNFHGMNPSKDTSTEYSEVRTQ
Quick list: Fold increase in potency compared to 6C7H5 per entry.
property.label: Fold increase in potency compared to 6C7H5

>>> measured_value("anti-CD33 antibody 6C7H49 (antibody, V domains shown, VH/VL only) VH: EVQLVESGGGLVQPGGSLRLSCAASGFTFSEYDMLWVRQAPGKGLEWVGEIRLKSNNYVTNYAASVKGRFTISRDDSKNSVYLQMNSLKTEDTGVYYCTRAGYYVPFAYWGQGTLVTVSS VL: QPVLTQSPSASASLGASVKLTCTLSSQHSTYTIEWYQQQPEKGPRYLMELKKEGSHSTGDGIPDRFSGSSSGAERYLTISSLQSEDEADYYCGVGVTIKEQFVYVFGGGTKLTVL")
"0.6 fold"
>>> measured_value("anti-CD33 antibody 6C7H46 (antibody, V domains shown, VH/VL only) VH: EVQLVESGGGLVQPGGSLRLSCAASGFTFSEYAMLWVRQAPGKGLEWVGEIRLKSNNYVTNYAASVKGRFTISRDDSKNSVYLQMNSLKTEDTGVYYCTRAGYYVPFAYWGQGTLVTVSS VL: QPMLTQSPSASASLGASVKLTCTLSSQHSTYTIEWYQQQPGKGPRYLMELKKEGSHSTGDGIPDRFSGSSSGAERYLTISSLQSEDEADYYCGVGLTIKEQFVYVFGGGTKLTVL")
"0.7 fold"
>>> measured_value("anti-CD33 antibody 6C7H40 (antibody, V domains shown, VH/VL only) VH: EVQLVESGGGLVQPGGSLRLSCAASGFTFSEYDMLWVRQAPGKGLEWVGEIRLKSNNYVTNYAASVKGRFTISRDDTKNSVYLQMNSLKTEDTGVYYCTRAGYYVPFAYWGQGTLVTVSS VL: QLMLTQSPSASASLGASVKLTCTLSSQHSTYTIEWYQQQPGKGPRYLMELKKEGSHSTGDGIPDRFSGSSSGAERYLTISSLQSEDEADYYCGVGHTIKEQFVYEFGGGTKLTVL")
"1.1 fold"
>>> measured_value("anti-CD33 antibody 6C7H35 (antibody, V domains shown, VH/VL only) VH: EVQLVESGGGLVQPGGSLRLSCAASGFTFSEYAMLWVRQAPGKGLEWVGEIRLKSNNYVTNYAASVKGRFTISRDDSKNSVYLQMNSLKTEDTGVYYCTRAGYYVPFTYWGQGTLVTVSS VL: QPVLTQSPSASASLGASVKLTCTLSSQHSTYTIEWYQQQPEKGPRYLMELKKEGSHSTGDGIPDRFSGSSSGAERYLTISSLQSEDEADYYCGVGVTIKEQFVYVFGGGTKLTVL")
"0.8 fold"
>>> measured_value("anti-CD33 antibody 6C7H48 (antibody, V domains shown, VH/VL only) VH: EVQLVESGGGLVQPGGSLRLSCAGSGFTFSNYEMNWVRQAPGKGLEWVAEIRLKSNNYVTNYAASVKGRFTISRDDSKNSVYLQMNSLKTEDTGVYYCTRAGYYVPFAYWGQGTLVTVSS VL: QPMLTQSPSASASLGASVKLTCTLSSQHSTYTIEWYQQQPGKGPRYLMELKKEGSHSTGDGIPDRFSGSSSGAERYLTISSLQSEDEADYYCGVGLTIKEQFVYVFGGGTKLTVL")
"0.8 fold"
>>> measured_value("anti-CD33 antibody 6C7H32 (antibody, V domains shown, VH/VL only) VH: EVQLVESGGGLVQPGGSLRLSCAASGSTFSEYDMLWVRQAPGKGLEWVGEIRLKSNNYVTNYAASVKGRFTISRDDSKNSVYLQMNSLKTEDTGVYYCTRAGYYVPFAYWGQGTLVTVSS VL: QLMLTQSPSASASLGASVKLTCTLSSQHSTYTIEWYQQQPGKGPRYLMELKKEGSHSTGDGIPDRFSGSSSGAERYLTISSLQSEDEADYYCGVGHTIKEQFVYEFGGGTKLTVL")
"0.9 fold"
>>> measured_value("anti-CD33 antibody 6C7H47 (antibody, V domains shown, VH/VL only) VH: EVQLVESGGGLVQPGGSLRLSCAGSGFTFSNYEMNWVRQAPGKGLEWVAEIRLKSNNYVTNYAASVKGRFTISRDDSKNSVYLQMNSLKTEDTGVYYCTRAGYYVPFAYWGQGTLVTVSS VL: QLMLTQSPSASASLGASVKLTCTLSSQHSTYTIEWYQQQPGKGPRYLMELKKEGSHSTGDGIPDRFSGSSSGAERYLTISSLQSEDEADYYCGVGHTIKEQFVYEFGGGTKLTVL")
"0.7 fold"
>>> measured_value("anti-CD33 antibody 6C7H39 (antibody, V domains shown, VH/VL only) VH: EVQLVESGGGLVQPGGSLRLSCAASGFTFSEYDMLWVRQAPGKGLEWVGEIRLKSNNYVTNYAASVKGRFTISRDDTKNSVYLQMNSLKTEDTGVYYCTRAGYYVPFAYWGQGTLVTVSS VL: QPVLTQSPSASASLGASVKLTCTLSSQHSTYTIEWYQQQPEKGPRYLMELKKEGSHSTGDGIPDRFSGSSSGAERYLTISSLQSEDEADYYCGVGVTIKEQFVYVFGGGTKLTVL")
"1.1 fold"
>>> measured_value("anti-CD33 antibody 6C7H44 (antibody, V domains shown, VH/VL only) VH: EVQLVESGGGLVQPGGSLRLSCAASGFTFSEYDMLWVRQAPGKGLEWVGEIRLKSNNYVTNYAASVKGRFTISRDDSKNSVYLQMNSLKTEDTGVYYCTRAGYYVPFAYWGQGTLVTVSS VL: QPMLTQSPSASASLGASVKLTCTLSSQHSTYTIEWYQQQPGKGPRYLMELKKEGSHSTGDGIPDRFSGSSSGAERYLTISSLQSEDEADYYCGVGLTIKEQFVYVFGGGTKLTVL")
"0.9 fold"
>>> measured_value("anti-CD33 antibody 6C7H41 (antibody, V domains shown, VH/VL only) VH: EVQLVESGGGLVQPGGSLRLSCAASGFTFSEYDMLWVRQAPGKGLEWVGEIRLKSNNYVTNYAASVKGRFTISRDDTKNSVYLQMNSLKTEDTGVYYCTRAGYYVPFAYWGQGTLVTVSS VL: QLMLTQSPSASASLGASVKLTCTLSSQHSTYTIEWYQQQPGKGPRYLMELKKEGSHSTGDGIPDRFSGSSSGAERYLTISSLQSEDEADYYCGVGHTIKEQFVYVFGGGTKLTVL")
"1.2 fold"
